Origin of values: patent US20120034231A1

- Target: T1, recombinant human IL12Rβ1/Fc fusion protein (human, UniProt P42701 24-545)
- T1 construct: Bought from R&D Systems; Partly used biotinylated; also called rh IL12Rβ1
- Test protocol: solution equilibrium titration (SET), BioVeris ECL, Fab
Property label: Kd (nM)

[[record]]
binder = "MOR05286 Fab (Fab, V domains shown, also called MOR5286) VH: QVQLKESGPALVKPTQTLTLTCTFSGFSLSTSGMGVSWIRQPPGKALEWLALIDWTDDKYYSTSLKTRLTISKDTSKNQVVLTMTNMDPVDTATYYCARTVGKGLYRVDNWGQGTLVTVSS VL: DIELTQPPSVSVAPGQTARISCSGDNLGSKFAYWYQQKPGQAPVLVIYDDSKRPSGIPERFSGSNSGNTATLTISGTQAEDEADYYCQSWDSSSGNDVFGGGTKLTVLG"
property_label = "Kd"
unit_spec = "nM"
number = 0.059

[[record]]
binder = "MOR05281 Fab (Fab, V domains shown) VH: QVQLKESGPALVKPTQTLTLTCTFSGFSLSTRGVGVSWIRQPPGKALEWLALIYWDEDKYYSTSLKTRLTISKDTSKNQVVLTMTNMDPVDTATYYCARYQSGYYYNNDGWGVDIWGQGTLVTVSS VL: DIQMTQSPSSLSASVGDRVTITCRASQSISSWLNWYQQKPGKAPKLLIYAASSLQSGVPSRFSGSGSGTDFTLTISSLQPEDFATYYCQQYYAFPHTFGQGTKVEIKR"
property_label = "Kd"
unit_spec = "nM"
number = 0.001

[[record]]
binder = "MOR05271 Fab (Fab, V domains shown) VH: QVQLKESGPALVKPTQTLTLTCTFSGFSLSTSTMGVSWIRQPPGKALEWLAWIYWDDDKDYSTSLKSRLTISKDTSKNQVVLTMTNMDPVDTATYYCARANPDLGYFDYWGQGTLVTVSS VL: DIALTQPASVSGSPGQSITISCTGTSSDLGESNYVSWYQQHPGKAPKVMIYDVNKRPSGVSNRFSGSKSGNTASLTISGLQAEDEADYYCGSYDEEDNVFGGGTKLTVLG"
property_label = "Kd"
unit_spec = "nM"
number = 0.021

[[record]]
binder = "MOR05278 Fab (Fab, V domains shown) VH: QVQLVESGGGLVQPGGSLRLSCAASGFTFSSYGMSWVRQAPGKGLEWVSYIEPKLFWYATFYAASVKGRFTISRDNSKNTLYLQMNSLRAEDTAVYYCARNDFMEPAYFALWGQGTLVTVSS VL: DIELTQPPSVSVAPGQTARISCSGDNLGSYYAYWYQQKPGQAPVGVIYDDSERPSGIPERFSGSNSGNTATLTISGTQAEDEADYYCSSYTYSKNNVFGGGTKLTVLG"
property_label = "Kd"
unit_spec = "nM"
number = 0.031

